The entries below are paired with their reported pEC50.
Test system: CEM-SS
METHOD NOTES: In vitro 50% cellular protection of CEM-SS cells from HIV-1 induced cytopathicity.
Format: functional, cell-based
APPLIED CONDITIONS: Homo sapiens
pEC50: −log10 of the molar value.
MEASUREMENT LABEL: pEC50

> print(dat)
                                   compound  target.system  recorded.value
1  Cc1cccc2c1nc(-c1c(F)cccc1F)n2Cc1c(Cl)cccc1Cl         CEM-SS            5.50
2  Fc1cccc(F)c1C1SCc2nc3ccccc3n21 (stereo not drawn) [THIAZOLOBENZIMIDAZOLE]         CEM-SS            6.28
3    Cc1cccc2c1nc(-c1cccnc1)n2Cc1c(F)cccc1F         CEM-SS            4.50

Ref: ChEMBL document CHEMBL1130403
